Measured IC50 (mGluR5 (Rattus norvegicus, UniProt P31424))

Below: 5 compounds and their reported IC50.
Task item: Form field: reported IC50 of Cc1nc(C#CCCn2nc3ccccc3n2)sc1C
Reply: < 10 µM

Task item: Another compound: FCc1cccc(C#CCCn2cc3c(Cl)cccc3n2)n1
Reply: < 0.05 µM

Task item: Now give it for COc1ccc(Cc2noc(CCC#Cc3ccccn3)n2)cc1 too.
Reply: < 10 µM

Task item: Try Fc1cc(Cl)c2oc(CCC#Cc3ccccn3)nc2c1 next.
Reply: < 0.05 µM

Task item: How about C(#Cc1ccccn1)CCc1nc(-c2ccc3ccccc3c2)no1 ?
Reply: < 10 µM

Continuing:
Task item: Item Cn1ccc(C#CCCn2nc3cccc(Cl)c3n2)n1 has what recorded IC50?
Reply: < 0.05 µM

Task item: Another compound: C(#Cc1ccccn1)CCn1nnc(-c2ccccc2)n1
Reply: < 10 µM
